# test.details: solvent given as SMILES
# experimental.conditions: in C1CCOC1
Classes are defined on emission maximum with ranges 1 (below 400 nm), 2 (400 nm to below 500 nm), 3 (500 nm or more)

Past entries and their recorded results:
[[record]]
compound = "CCOC(=O)c1sc(SC)c2c(=O)n(C)nnc12"
category_label = 2

[[record]]
compound = "N#Cc1c(N2CCCCC2)cc(-c2ccc3ccc4cccc5ccc2c3c45)c2c1Cc1ccccc1-2"
category_label = 2

[[record]]
compound = "CN(C)c1ccc(/C=C/c2cc(/C=C/c3ccc(N(C)C)cc3)nc(/C=C/c3ccccc3)n2)cc1"
category_label = 3


Here is another compound to look at.
Class (by measured emission maximum) for COC(=O)c1ccc(-c2ccc3c(c2)C(=O)c2cc(-c4ccc(C(=O)OC)cc4)ccc2-3)cc1
1

###

# test.details: solvent given as SMILES
# experimental.conditions: in ClCCl
Overview of recorded emission maximum for various compounds
Express the reported value numerically, then name its unit.

[[record]]
compound = "N#Cc1cc2nc3c(nc2cc1C#N)C1c2ccc(N(c4ccccc4)c4ccccc4)cc2C3c2ccc(N(c3ccccc3)c3ccccc3)cc21"
result = "497 nm"

[[record]]
compound = "COc1ccc(C(=O)/C=C2\\C(=O)Nc3ccccc32)cc1"
result = "411 nm"

[[record]]
compound = "CCOC(=O)c1ccccc1-c1c2ccc(=[N+](CC)CC)cc-2oc2c1oc1cc(N)ccc12"
result = "627 nm"

[[record]]
compound = "CCN(CC)c1ccc(/C=N/C(C#N)=C(C#N)/N=C/c2ccc(N(CC)CC)cc2O)c(O)c1"
result = "612 nm"

[[record]]
compound = "COc1ccc(C2=C(c3ccc(OC)cc3)c3cccc4c5c(cc(c34)O2)=NC(C#N)C(C#N)N=5)cc1 (stereo unspecified)"
result = "632 nm"


Dear colleague, I am looking for the recorded emission maximum of the following compound: c1ccc(-c2nc(-c3ccc(N4c5ccccc5Sc5ccccc54)cc3)nn2-c2ccc(N3c4ccccc4Sc4ccccc43)cc2)nc1
490 nm

Now consider COc1ccc(-c2nc3c(c4c2-c2ccc(C#N)cc2CC4)-c2ccc(C#N)cc2CC3)cc1 and answer again.
425 nm

Also check CC(C)(C)NC(=O)c1ccc(-c2ccccc2)c2ccc3c4ccccc4c4ccccc4c3c12
413 nm

Quick one: COc1ccc2cc(C3=[N+]4C(=Nc5c(-c6ccc7ccccc7c6)cc(-c6ccc7cc(OC)ccc7c6)n5[B-]4(F)F)C(c4ccc5ccccc5c4)=C3)ccc2c1
754 nm

Next record, please: COc1ccc(/C=C/C2=[O+][B-](F)(F)OC(/C=C/c3ccc(OC)cc3)=C2c2ccc(OC)cc2)cc1
571 nm

Input COC(=O)c1[nH]c(-c2ccccc2)c2nnc3c4ccccc4oc3c12
473 nm

###

# test.details: solvent given as SMILES
# experimental.conditions: in CC#N
Rule: y for emission maximum not less than 500 nm, n for anything less.

As a guide, the following entries are already answered.
[[record]]
molecule = "F[B-]1(F)n2c(-c3cccs3)cc(-c3cccs3)c2N=C2C(c3cccs3)=CC(c3cccs3)=[N+]21"
category_label = "y"

[[record]]
molecule = "CN(C)c1ccc(-c2nc3nc4ccccc4nc3n2-c2ccccc2)cc1"
category_label = "y"

[[record]]
molecule = "C1=Cc2ccccc2Cc2ccccc21"
category_label = "n"

[[record]]
molecule = "C(=C\\c1ccc(-c2nnc(-c3ccc(/C=C/c4ccc(-c5nc(-c6ccccc6)c(-c6ccccc6)[nH]5)cc4)cc3)o2)cc1)/c1ccc(-c2nc(-c3ccccc3)c(-c3ccccc3)[nH]2)cc1"
category_label = "y"

[[record]]
molecule = "CC(=O)OC[C@H]1O[C@@H](OCC#Cc2ccc(C3=C4C(C)=CC(/C=C/c5ccc([N+](C)(C)C)cc5)=[N+]4[B-](F)(F)n4c(/C=C/c5ccc([N+](C)(C)C)cc5)cc(C)c43)cc2)[C@H](OC(C)=O)C(OC(C)=O)[C@@H]1OC(C)=O (stereo partly specified)"
category_label = "y"

[[record]]
molecule = "Cc1ccc(-c2ccc(/C=C/c3ccc(N(C)C)cc3)cn2)nc1"
category_label = "y"


Hi, just wondering whether COc1cc(-c2cc(-c3ccc(C)cc3)nc3c(C#N)c(N4CCCC4)nc(N)c23)cc(OC)c1OC shows emission maximum of 500 nm or higher.
y

Moving on to the next molecule: CN(C)c1ccc(/C=C/c2cc(/C=C/c3ccc(N(C)C)cc3)nc(/C=C/c3ccccc3)n2)cc1
y

Next up: c1ccc2c(-c3ccc(-c4nnc(-c5ccc(-c6nnc(-c7ccc(-c8cccc9ccccc89)s7)o6)cc5)o4)s3)cccc2c1
n

###

# test.details: solvent given as SMILES
# experimental.conditions: in CCOCC
property: emission maximum

[[record]]
smiles_notation = "CC(C)[Si]1(C(C)C)c2cc(C=C(C#N)C#N)ccc2-c2ccc(N(C)C)cc21"
result = "584 nm"

[[record]]
smiles_notation = "COC(=O)c1ccc(NC(=O)c2ccc(N(C)C)cc2)cc1"
result = "456 nm"

[[record]]
smiles_notation = "Cc1ccc(C)n1-c1cccc(C#N)c1"
result = "444 nm"


Entry OB(O)c1ccc(-c2ccc(N(c3ccccc3)c3ccccc3)cc2)cc1 : reported emission maximum = ?
398 nm

How about CN(C)c1ccc(/C=C/C=C/c2ccc(C#N)cc2)cc1 ?
509 nm

CC1=C(C(C)(C)C)C(C)=[N+]2C1=C(C)c1c(C)c(C(C)(C)C)c(C)n1[B-]2(F)F , same question.
565.4 nm

And for Cc1cc(C2(c3cc(C)c(O)c(Br)c3)OS(=O)(=O)c3ccccc32)cc(Br)c1O ?
476 nm

Same for c1ccc(-c2nc(-c3ccc(-c4nc(-c5ccccc5)c(-c5ccccc5)[nH]4)cc3)[nH]c2-c2ccccc2)cc1
419 nm

Entry to check: COC(=O)C1=C(C(=O)OC)C2=C[C@H]3c4ccccc4[C@]2(S1)c1ccccc13
473 nm

CC(C)(C)c1ccc2c(c1)c1cc3c4cc(C(C)(C)C)ccc4c4c5c6ccc(C(C)(C)C)cc6c6cc7c8cc(C(C)(C)C)ccc8c8c2c1c(c34)c(c78)c65 , same question.
679.9 nm

Another molecule to look at: CC(C)(C)c1ccc(-c2nc3c4ccccc4c4ccccc4c3n2-c2ccc(C(C)(C)C)cc2)cc1
388 nm

Next molecule up: COc1ccc(/C=C/C2=CC(/C=C/c3ccc(OC)cc3)=[O+][B-](F)(F)O2)cc1
497 nm

Then what about the molecule COc1nc(Nc2ccc3c4c(cccc24)C(=O)c2ccccc2-3)nc(OC)n1 ?
520.02 nm

Please give the result for CCCCn1c2ccc(C#N)cc2c2cc(C#N)cc(-c3ccc(N(c4ccccc4)c4ccccc4)cc3)c21 too.
424 nm

One more molecule: c1csc(-c2cnc(-c3cccs3)c3nonc23)c1
587 nm

// query: COc1cc(/C=C/c2ccccc2)cc(OC)c1
374 nm

###

# test.details: solvent given as SMILES
# experimental.conditions: in CC#N
property: emission maximum
Your reply should be a number followed by the unit it is expressed in.

Need emission maximum, item CN(C)c1ccc(C(=O)Nc2ccc(Cl)cc2)cc1
498 nm

Now the compound CC1=CC(C)=[N+]2C1=C(c1ccc(N3CCOCC3)cc1)c1c(C)cc(C)n1[B-]2(F)F
511 nm

Same thing, different compound: C(=C\c1c2ccccc2cc2ccccc12)/c1cnc2ccccc2c1
494 nm

###

# test.details: solvent given as SMILES
# experimental.conditions: in CCCCCC
property: emission maximum (nm)
Numbers only here, please. The scale is nm.

[[record]]
smiles_notation = "c1ccc(-c2nc(-c3ccccc3)nc(-c3ccc(-n4c5ccccc5c5cc6c(cc54)C4(c5ccccc5-c5ccccc54)c4ccccc4-6)cc3)n2)cc1"
result_unit = "nm"
number = 396.27

[[record]]
smiles_notation = "CC(C)[Si](C#Cc1ccc(C#C[Si](C(C)C)(C(C)C)C(C)C)c2nc3c(nc12)C1c2ccccc2C3c2ccccc21)(C(C)C)C(C)C"
result_unit = "nm"
number = 404

[[record]]
smiles_notation = "CCCCCCC(CCCCCC)N1C(=O)c2cccc3c(-c4ccc([Si](C)(C)C)cc4)ccc(c23)C1=O"
result_unit = "nm"
number = 406.7

[[record]]
smiles_notation = "COc1ccc(-n2nc(C(=O)N3CCCC3)c(N3CCCC3)n2)cc1"
result_unit = "nm"
number = 405

[[record]]
smiles_notation = "c1ccc(-c2nc(-c3ccc(-c4ccc(N(c5ccccc5)c5ccccc5)cc4)cn3)oc2-c2ccccc2)cc1"
result_unit = "nm"
number = 399


Need emission maximum, item COc1ccc(-n2nc(C#N)c(N3CCCC3)n2)cc1
389

Continue with c1ccc(-c2c3c(c(-c4ccccc4)c4cc5ccccc5cc24)Cc2c(c(-c4ccccc4)c4cc5ccccc5cc4c2-c2ccccc2)C3)cc1
396
